Measured EC50 of individual entries
- target.or.system: FPRL-1 (Homo sapiens)
- Sequence (P25090 whole entry): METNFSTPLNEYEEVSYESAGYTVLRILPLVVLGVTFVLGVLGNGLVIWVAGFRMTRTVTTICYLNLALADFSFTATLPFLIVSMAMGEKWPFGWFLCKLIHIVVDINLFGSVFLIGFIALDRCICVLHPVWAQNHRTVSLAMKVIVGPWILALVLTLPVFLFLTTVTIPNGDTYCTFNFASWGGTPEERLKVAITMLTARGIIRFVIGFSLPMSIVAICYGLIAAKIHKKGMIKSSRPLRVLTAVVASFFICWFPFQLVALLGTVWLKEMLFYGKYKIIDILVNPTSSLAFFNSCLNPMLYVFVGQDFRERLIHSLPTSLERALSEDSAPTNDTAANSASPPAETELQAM
- test.summary: Compound-induced calcium activity on FLIPR Tetra in CHO-Ga16 cells stably expressing FPRL1
- conditions.used: compounds tested at 0.61 to 10,000 nM
measurement.label: EC50 (nM)

{"compound": "O=C(Nc1c(F)cc(Br)cc1F)N[C@@H](Cc1ccccc1)C(=O)O [Compound 3]", "unit.spec": "nM", "measured.result": 563}
{"compound": "CCC[C@H](NC(=O)Nc1ccc(Br)cc1F)C(N)=O [Compound 30]", "unit.spec": "nM", "measured.result": 56}
{"compound": "CSCC[C@H](NC(=O)Nc1ccc(Br)cc1)C(=O)O [Compound 14]", "unit.spec": "nM", "measured.result": 75}
{"compound": "O=C(Nc1ccc(Br)cc1F)N[C@@H](Cc1ccccc1)C(=O)O [Compound 1]", "unit.spec": "nM", "measured.result": 51}
{"compound": "O=C(Nc1ccc(Br)c2ccccc12)N[C@@H](Cc1ccccc1)C(=O)O [Compound 10]", "unit.spec": "nM", "measured.result": 5100}

Reference for the values: patent US8816076B2
